Here, each record is paired with measured IC50 data.
Target: Gastrin/cholecystokinin type B receptor (Mus musculus)
Sequence (P56481 whole entry): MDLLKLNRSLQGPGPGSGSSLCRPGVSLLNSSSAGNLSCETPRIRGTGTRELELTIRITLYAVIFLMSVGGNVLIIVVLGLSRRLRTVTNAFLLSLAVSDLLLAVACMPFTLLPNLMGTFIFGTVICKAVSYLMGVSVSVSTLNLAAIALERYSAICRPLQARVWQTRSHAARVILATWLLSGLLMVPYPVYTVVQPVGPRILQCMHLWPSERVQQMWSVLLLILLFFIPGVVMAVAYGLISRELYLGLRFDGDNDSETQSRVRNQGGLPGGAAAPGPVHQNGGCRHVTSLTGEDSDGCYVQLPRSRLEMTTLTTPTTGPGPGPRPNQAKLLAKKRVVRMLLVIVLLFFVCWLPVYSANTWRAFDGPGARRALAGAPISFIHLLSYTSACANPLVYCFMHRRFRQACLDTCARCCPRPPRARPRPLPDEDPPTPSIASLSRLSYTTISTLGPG
Assay: In vitro binding affinity against Cholecystokinin type B receptor in mouse cerebral cortical membranes using [125I]Tyr(SO3H)27]-CCK-8 binding assay
Field: numeric (µM). Do not append units.

// solved cases for IC50 follow
[
  {
    "QUERY SMILES": "O=C(O)CCNS(=O)(=O)c1ccc(N/N=C(/S)NCCc2c[nH]c3ccccc23)c([N+](=O)[O-])c1",
    "MEASURED PROPERTY": "IC50",
    "EXPERIMENTAL RESULT": 24
  },
  {
    "QUERY SMILES": "O=C(O)CCCN(Cc1ccccc1)S(=O)(=O)c1ccc(N/N=C(/S)NCCc2c[nH]c3ccccc23)c([N+](=O)[O-])c1",
    "MEASURED PROPERTY": "IC50",
    "EXPERIMENTAL RESULT": 2.43
  },
  {
    "QUERY SMILES": "O=C(O)c1ccccc1NS(=O)(=O)c1ccc(N/N=C(/S)NCCc2c[nH]c3ccccc23)c([N+](=O)[O-])c1",
    "MEASURED PROPERTY": "IC50",
    "EXPERIMENTAL RESULT": 4.5
  }
]

Switching to the query record.
Please give measured IC50 of the following entry: `O=C(O)CCCNS(=O)(=O)c1ccc(N/N=C(/S)NCCc2c[nH]c3ccccc23)c([N+](=O)[O-])c1`
11
